Test system: Rattus norvegicus
Assay Remarks: Hypotensive activity in deoxycorticosterone acetate treated hypertensive CD rat assessed as change in blood pressure at 100 mg, ip after 4 hrs relative to control
Format: functional
Measurement Label: Activity
Your answer should be a number followed by the unit of measure.

Inquiry: For the molecule COc1ccc(C(=O)N2CCc3c(c4c(c(OC)c3OC)CCC4)C2)cc1OC , what Activity is on record?
Reply text: -3.4%

Inquiry: Which Activity value is on record for COc1c2c(c3c(c1OC)CN(CC(c1ccccc1)c1ccccc1)CC3)CCC2 ?
Reply text: -11.2%

Inquiry: Which value of Activity has been reported for COc1c2c(c3c(c1OC)CN(CCC(c1ccccc1)c1ccccc1)CC3)CCC2 in the records?
Reply text: -6.7%

Inquiry: What does the data say about its Activity? Entry: COc1c2c(c3c(c1OC)CCN(CC(c1ccccc1)c1ccccc1)C3)CCC2
Reply text: -2%

###

Please provide measured Activity for the entries that follow.
Tested on: Rattus norvegicus
Assay Remarks: Cardiovascular activity in deoxycorticosterone acetate treated hypertensive CD rat assessed as change in heart rate at 100 mg, ip after 2 hrs relative to control
Type: ADME, organism-based
Reported Conditions: in vivo
Value expressed in %; do not type the unit.

Inquiry: Report Activity for COc1c2c(c3c(c1OC)CCN(CC(c1ccccc1)c1ccccc1)C3)CCC2 please.
Reply text: 25.4

Inquiry: // lookup Activity for COc1ccc(C(=O)N2CCc3c(c4c(c(OC)c3OC)CCC4)C2)cc1OC
Reply text: 3.4

Inquiry: Look up Activity for this molecule: COc1c2c(c3c(c1OC)CN(CCC(c1ccccc1)c1ccccc1)CC3)CCC2
Reply text: 4.6

Inquiry: So what's the measured Activity for this one? COc1c2c(c3c(c1OC)CN(CC(c1ccccc1)c1ccccc1)CC3)CCC2
Reply text: 2.4

###

System: Rattus norvegicus
Assay Remarks: Hypotensive activity in deoxycorticosterone acetate treated hypertensive CD rat assessed as change in blood pressure at 20 mg, ip after 4 hrs relative to control
Type: functional
Measurement Label: Activity (%)
Please state the figure in %; there is no need to write the unit.

Inquiry: Any idea what Activity was measured for Br.COc1c2c(c3c(c1OC)CN(C)CC3)CCC2 ?
Reply text: -4.2

Inquiry: Given the entry COc1c2c(c3c(c1OC)CN(CC(c1ccccc1)c1ccccc1)CC3)CCC2 , report its measured Activity.
Reply text: -2.9

Inquiry: Reported Activity, compound COc1c2c(c3c(c1OC)CN(C(=O)CC(c1ccccc1)c1ccccc1)CC3)CCC2 : ____
Reply text: -5

Inquiry: Would you mind telling me what Activity value was observed for COc1ccc(CC(=O)N2CCc3c4c(c(OC)c(OC)c3C2)CCC4)cc1OC ?
Reply text: -6.3

Inquiry: Name the reported Activity value associated with the compound COc1c2c(c3c(c1OC)CNCC3)CCC2
Reply text: -3.9

Inquiry: What measured Activity goes with COc1ccc(C(=O)N2CCc3c4c(c(OC)c(OC)c3C2)CCC4)cc1OC ?
Reply text: -3.1

Inquiry: // Activity lookup, key: Br.CCC(C)CN1CCc2c3c(c(OC)c(OC)c2C1)CCC3 (configuration not stated)
Reply text: -7

###

Task for the reader: assign each of the following compounds its reported Activity.
Test system: Rattus norvegicus
Assay Remarks: Hypotensive activity in deoxycorticosterone acetate treated hypertensive CD rat assessed as change in blood pressure at 20 mg, ip after 1 hr relative to control
Assay type: functional
Quick note: give the figure in %, leave out the unit.

Inquiry: Record lookup: for Rattus norvegicus, what Activity belongs to Br.CCC(C)CN1CCc2c3c(c(OC)c(OC)c2C1)CCC3 (configuration not stated) ?
Reply text: -13.1

Inquiry: Provide value of Activity for this record tested with Rattus norvegicus: COc1c2c(c3c(c1OC)CN(C(=O)CC(c1ccccc1)c1ccccc1)CC3)CCC2
Reply text: -4.4

Inquiry: What reported Activity corresponds to COc1c2c(c3c(c1OC)CN(CC(c1ccccc1)c1ccccc1)CC3)CCC2 on Rattus norvegicus?
Reply text: 1.4

Inquiry: # query: Activity | item Br.COc1c2c(c3c(c1OC)CN(C)CC3)CCC2 | system: Rattus norvegicus
Reply text: 6.3

Inquiry: Fill in the recorded Activity for this compound, with Rattus norvegicus as test system: COc1ccc(C(=O)N2CCc3c4c(c(OC)c(OC)c3C2)CCC4)cc1OC
Reply text: -4

Inquiry: Form field - read-out: Activity; system: Rattus norvegicus; submitted item: COc1ccc(CC(=O)N2CCc3c4c(c(OC)c(OC)c3C2)CCC4)cc1OC
Reply text: 5.4

Inquiry: Item: COc1c2c(c3c(c1OC)CNCC3)CCC2 Test system: Rattus norvegicus Read-out: Activity Value: ?
Reply text: -3.9

###

Test system: Rattus norvegicus
Assay Remarks: Hypotensive activity in deoxycorticosterone acetate treated hypertensive CD rat assessed as change in blood pressure at 50 mg, ip after 2 hrs relative to control
Assay type: functional
For each of the molecules below, state its Activity.
// units = %; emit number, no label

Inquiry: Request - read-out Activity | tested on Rattus norvegicus | molecule CC(=O)Oc1c2c(c3c(c1OC(C)=O)CN(C)CC3)CCC2.O=C(O)C(F)(F)F
Reply text: 5.2

Inquiry: Hello, I am looking for reported Activity with Rattus norvegicus for Br.COc1ccc(CCN2CCc3c4c(c(OC)c(OC)c3C2)CCC4)cc1OC . Could you help?
Reply text: -11.3

Inquiry: Which measured Activity belongs to C[C@](N)(Cc1ccc(O)c(O)c1)C(=O)O , tested on Rattus norvegicus?
Reply text: -50

Inquiry: Lab request: please report Activity under test system Rattus norvegicus for Br.CN1CCc2c(c(O)c(O)c3c2CCC3)C1
Reply text: 2.6

Inquiry: I'm curious: which Activity was measured for Br.COc1c2c(c3c(c1OC)CN(C)CC3)CCC2 tested on Rattus norvegicus?
Reply text: -2.9

Inquiry: Please provide the recorded Activity for Br.COc1ccc(CN2CCc3c(c4c(c(OC)c3OC)CCC4)C2)cc1OC , tested on Rattus norvegicus.
Reply text: -2.4

Inquiry: For the record Br.CN1CCc2c(O)c(O)c3c(c2C1)CCC3 , what value of Activity is listed for Rattus norvegicus?
Reply text: -3.5

Inquiry: Look up Activity with Rattus norvegicus for this molecule: COc1ccc(CN2CCc3c4c(c(OC)c(OC)c3C2)CCC4)cc1OC.Cl
Reply text: -4.2

###

Tested on: Rattus norvegicus
Assay Remarks: Cardiovascular activity in deoxycorticosterone acetate treated hypertensive CD rat assessed as change in heart rate at 50 mg, ip after 24 hrs relative to control
Type: ADME, organism-based
Reported Conditions: in vivo
Measurement Label: Activity (%)
Field format: number, assumed %, no unit text.

Inquiry: Please look up its Activity: C[C@](N)(Cc1ccc(O)c(O)c1)C(=O)O
Reply text: -19.3

Inquiry: Could you share which Activity value was measured for COc1c2c(c3c(c1OC)CNCC3)CCC2 ?
Reply text: -3.8

Inquiry: Field request: Activity | item: CC(=O)Oc1c2c(c3c(c1OC(C)=O)CN(C)CC3)CCC2.O=C(O)C(F)(F)F
Reply text: 0.3

Inquiry: GET /values?readout=Activity&item= Br.COc1ccc(CN2CCc3c(c4c(c(OC)c3OC)CCC4)C2)cc1OC
Reply text: -9.1

Inquiry: Item Br.COc1c2c(c3c(c1OC)CN(C)CC3)CCC2 has what recorded Activity?
Reply text: -3.8

Inquiry: Reported Activity, molecule Br.COc1ccc(CCN2CCc3c4c(c(OC)c(OC)c3C2)CCC4)cc1OC : ____
Reply text: 2.4

Inquiry: So what does the record say about Activity for Br.CN1CCc2c(O)c(O)c3c(c2C1)CCC3 ?
Reply text: -8.6

Inquiry: Consider the molecule shown here: COc1ccc(CN2CCc3c4c(c(OC)c(OC)c3C2)CCC4)cc1OC.Cl What is its recorded Activity?
Reply text: -1.3

Inquiry: Any idea what its Activity is? The molecule is Br.CN1CCc2c(c(O)c(O)c3c2CCC3)C1
Reply text: 3

###

System: Rattus norvegicus
Assay Remarks: Hypotensive activity in deoxycorticosterone acetate treated hypertensive CD rat assessed as change in blood pressure at 100 mg, ip after 24 hrs relative to control
Type: functional
Measurement Label: Activity (%)
Entry rule: numbers only, all in %.

Inquiry: Give the measured Activity of COc1c2c(c3c(c1OC)CCN(CC(c1ccccc1)c1ccccc1)C3)CCC2 .
Reply text: 4

Inquiry: Return reported Activity; argument: COc1ccc(C(=O)N2CCc3c(c4c(c(OC)c3OC)CCC4)C2)cc1OC
Reply text: -6

Inquiry: # input compound: COc1c2c(c3c(c1OC)CN(CC(c1ccccc1)c1ccccc1)CC3)CCC2 ; wanted: its Activity
Reply text: -3.6

Inquiry: Which Activity is reported for this compound? COc1c2c(c3c(c1OC)CN(CCC(c1ccccc1)c1ccccc1)CC3)CCC2
Reply text: -7

###

Provide the recorded Activity for the entries that follow.
Tested on: Rattus norvegicus
Assay Remarks: Cardiovascular activity in deoxycorticosterone acetate treated hypertensive CD rat assessed as change in heart rate at 20 mg, ip after 2 hrs relative to control
Type: ADME, organism-based
Reported Conditions: in vivo
All answers are understood in %, so give the number only.

Inquiry: Name the reported Activity value associated with the molecule Br.CCC(C)CN1CCc2c3c(c(OC)c(OC)c2C1)CCC3 (configuration not stated)
Reply text: 7.3

Inquiry: Which Activity is listed for Br.COc1c2c(c3c(c1OC)CN(C)CC3)CCC2 ?
Reply text: 9.2

Inquiry: Could you tell me which Activity is on file for COc1ccc(CC(=O)N2CCc3c4c(c(OC)c(OC)c3C2)CCC4)cc1OC ?
Reply text: 1.8

Inquiry: So what's the measured Activity for this one? COc1c2c(c3c(c1OC)CN(CC(c1ccccc1)c1ccccc1)CC3)CCC2
Reply text: 10.7

Inquiry: Request the reported Activity associated with COc1c2c(c3c(c1OC)CNCC3)CCC2
Reply text: 16.9

Inquiry: Requested field: Activity. Item: COc1c2c(c3c(c1OC)CN(C(=O)CC(c1ccccc1)c1ccccc1)CC3)CCC2
Reply text: 15.8

Inquiry: Requested read-out: Activity. Entry: COc1ccc(C(=O)N2CCc3c4c(c(OC)c(OC)c3C2)CCC4)cc1OC
Reply text: 8.9
